The origin of these recorded values is PubChem BioAssay (EPA / NIEHS).

# ASSAY_DETAILS: BSK_3C_VCAM1: BioMAP Diversity Plus: 3C Assay for Vascular cell adhesion molecule 1 (VCAM1) Biomarker Activity (AID 2282999)
# EXPERIMENTAL_CONDITIONS: BioMAP 3C HUVEC, VCAM1 ELISA, cytokine-stimulated; actives raise or lower the signal
Active and inactive are the calls of the source. Rule for the calls: active = hit-call score of the fitted dose curve at least 0.9, where 1 is the maximum; inactive = score below 0.9.
MEASURED_ATTRIBUTE: AC50

{"CHEMICAL_STRING": "O=c1c(-c2ccc(O)cc2)coc2cc(O)cc(O)c12", "AC50": "inactive"}
{"CHEMICAL_STRING": "Cc1ccc(C(C)C)cc1", "AC50": "inactive"}
{"CHEMICAL_STRING": "CCCC(=O)OCCC(C)C", "AC50": "inactive"}
{"CHEMICAL_STRING": "Cc1cc2c(cc1C(F)(F)F)N(C(=O)Nc1ccc(Oc3cccnc3C)nc1)CC2", "AC50": "inactive"}

Field AC50 (entry `COc1cccc([C@H](O)C2CCN(CCc3ccc(F)cc3)CC2)c1OC` ) reads inactive
